test system: Dendritic cell; assay: Cytotoxicity against human monocytes-derived dendritic cells assessed as reduction in cell viability after 10 ug/ml after 24 hrs by trypan blue staining based assay; conditions: dose 10 µg/ml
measured_property: Activity

Solved cases (5 shown):
{"molecule": "CC(C)C(=O)c1c(CCN(C)C)c2ccc(Br)cc2[nH]c1=O", "Activity": "Non-Toxic"}
{"molecule": "O=C(O)C(F)(F)F.O=Cc1c[nH]c2cc(Br)ccc12", "Activity": "Non-Toxic"}
{"molecule": "C=CC(C)(C)c1c(CCNC)c2ccc(Br)cc2n1C.O=C(O)C(F)(F)F", "Activity": "Non-Toxic"}
{"molecule": "CO[C@H](c1[nH]c2cc(Br)ccc2c1CCN(C)C)[C@@H](O)C(C)(C)O", "Activity": "Non-Toxic"}
{"molecule": "CNCCc1cn(CC=C(C)C)c2cc(Br)ccc12.O=C(O)C(F)(F)F", "Activity": "Non-Toxic"}

Task: Notebook: pull reported Activity for Dendritic cell, entry C=CC(C)(C)c1[nH]c2cc(Br)ccc2c1CC[N+]1(C)CCOC1 (stereo not drawn)
Output: Non-Toxic

Task: Notebook: pull reported Activity for Dendritic cell, entry `CN(C)CCc1c[nH]c2cc(Br)ccc12.O=C(O)C(F)(F)F`
Output: Non-Toxic

Task: Notebook: pull reported Activity for Dendritic cell, entry `C=CC(C)(C)C(=O)Nc1cc(Br)ccc1C(=O)O`
Output: Non-Toxic
